I'd appreciate it if you could supply MIC values for the items below.
System: STAPHYLOCOCCUS AUREUS CMX 642A
assay-summary: In vitro antibacterial activity, MIC, BHI agar dilution
Format: cell-based
study-conditions: S. aureus CMX 642A, unit assumed
Answers are plain numbers, in µg/mL.

INSERT INTO measurements (compound, tested_system, test_result) VALUES
  ('CC[C@H]1OC(=O)[C@H](C)C(=O)[C@H](C)[C@@H](O[C@@H]2O[C@H](C)C[C@H](N(C)C)[C@H]2O)[C@](C)(OC)C[C@@H](C)C2=NC3CN(CCOC)CC3N3C(=O)O[C@@]1(C)[C@H]3[C@H]2C (stereo partly shown) [Example 126]', 'STAPHYLOCOCCUS AUREUS CMX 642A', 1.56),
  ('CC[C@H]1OC(=O)[C@H](C)C(=O)[C@H](C)[C@@H](O[C@@H]2O[C@H](C)C[C@H](N(C)C)[C@H]2O)[C@](C)(OC)C[C@@H](C)C2=NC[C@H](Cc3cscn3)N3C(=O)O[C@@]1(C)[C@H]3[C@H]2C [Example 69]', 'STAPHYLOCOCCUS AUREUS CMX 642A', 0.39),
  ('CC[C@H]1OC(=O)[C@H](C)C(=O)[C@H](C)[C@@H](O[C@@H]2O[C@H](C)C[C@H](N(C)C)[C@H]2O)[C@](C)(OC)C[C@@H](C)C2=NC3CN(CCc4ccc([N+](=O)[O-])cc4)CC3N3C(=O)O[C@@]1(C)[C@H]3[C@H]2C (stereo partly shown) [Example 118]', 'STAPHYLOCOCCUS AUREUS CMX 642A', 0.39);

Per the reported STAPHYLOCOCCUS AUREUS CMX 642A data, CC[C@H]1OC(=O)[C@H](C)C(=O)[C@H](C)[C@@H](O[C@@H]2O[C@H](C)C[C@H](N(C)C)[C@H]2O)[C@](C)(OC)C[C@@H](C)C2=NC[C@@H](CCCc3ccccc3)N3C(=O)O[C@@]1(C)[C@H]3[C@H]2C [Example 36] has MIC of 0.2

---

Tested on: KLEBSIELLA PNEUMONIAE ATCC 8045
assay-summary: In vitro antibacterial activity, MIC, BHI agar dilution
Assay type: cell-based
study-conditions: K. pneumoniae ATCC 8045, unit assumed
property: MIC (µg/mL)
Give bare numbers, in µg/mL.

INSERT INTO measurements (compound, property, test_result) VALUES
  ('CC[C@H]1OC(=O)[C@H](C)C(=O)[C@H](C)[C@@H](O[C@@H]2O[C@H](C)C[C@H](N(C)C)[C@H]2O)[C@](C)(OC)C[C@@H](C)C2=NC[C@H](COCc3ccc(OC)cc3)N3C(=O)O[C@@]1(C)[C@H]3[C@H]2C [Example 62]', 'MIC', 25);

// MIC lookup, compound = CC[C@H]1OC(=O)[C@H](C)C(=O)[C@H](C)[C@@H](O[C@@H]2O[C@H](C)C[C@H](N(C)C)[C@H]2O)[C@](C)(OC)C[C@@H](C)C2=NC[C@@H](CCCc3ccccc3)N3C(=O)O[C@@]1(C)[C@H]3[C@H]2C [Example 36] , result: 50

---

System: STAPHYLOCOCCUS AUREUS CMX 642A
assay-summary: In vitro antibacterial activity, MIC, BHI agar dilution
Assay type: cell-based
study-conditions: S. aureus CMX 642A, unit assumed
property: MIC

INSERT INTO results (molecule, tested_system, test_result) VALUES
  ('CC[C@H]1OC(=O)[C@H](C)C(=O)[C@H](C)[C@@H](O[C@@H]2O[C@H](C)C[C@H](N(C)C)[C@H]2O)[C@](C)(OC)C[C@@H](C)C2=NC[C@H](CSCc3ccccc3)N3C(=O)O[C@@]1(C)[C@H]3[C@H]2C', 'STAPHYLOCOCCUS AUREUS CMX 642A', '0.2 µg/mL');

Moving on to another molecule below.
Per the reported STAPHYLOCOCCUS AUREUS CMX 642A data, CC[C@H]1OC(=O)[C@H](C)C(=O)[C@H](C)[C@@H](O[C@@H]2O[C@H](C)C[C@H](N(C)C)[C@H]2O)[C@](C)(OC)C[C@@H](C)C2=NC3CN(CCc4cccc([N+](=O)[O-])c4)CC3N3C(=O)O[C@@]1(C)[C@H]3[C@H]2C (some centres unmarked) has MIC of 0.2 µg/mL

---

Test system: STAPHYLOCOCCUS AUREUS CMX 553
assay-summary: In vitro antibacterial activity, MIC, BHI agar dilution
Type: cell-based
study-conditions: S. aureus CMX 553, unit assumed
I'd appreciate it if you could supply MIC values for the items below.
One number for each entry, in µg/mL.

Observe how each entry below is paired with its result.
INSERT INTO assay_data (compound, test_result) VALUES
  ('C=CCN1CC2N=C3[C@H](C)C[C@@](C)(OC)[C@H](O[C@@H]4O[C@H](C)C[C@H](N(C)C)[C@H]4O)[C@@H](C)C(=O)[C@@H](C)C(=O)O[C@H](CC)[C@@]4(C)OC(=O)N(C2C1)[C@@H]4[C@H]3C (stereo partly shown)', 0.78),
  ('CC[C@H]1OC(=O)[C@H](C)C(=O)[C@H](C)[C@@H](O[C@@H]2O[C@H](C)C[C@H](N(C)C)[C@H]2O)[C@](C)(OC)C[C@@H](C)C2=NC3CN(C(C)=O)CC3N3C(=O)O[C@@]1(C)[C@H]3[C@H]2C (stereo partly shown)', 6.2),
  ('CC[C@H]1OC(=O)[C@H](C)C(=O)[C@H](C)[C@@H](O[C@@H]2O[C@H](C)C[C@H](N(C)C)[C@H]2O)[C@](C)(OC)C[C@@H](C)C2=N[C@H](COCc3ccc(C#N)cc3)CN3C(=O)O[C@@]1(C)[C@H]3[C@H]2C', 0.1);

// MIC lookup, compound = CCC1OC(=O)C(C)C(=O)C(C)C(OC2OC(C)CC(N(C)C)C2O)C(C)(OC)CC(C)C2=NCC(C)(CN(C)C)N3C(=O)OC1(C)C3C2C (stereo not shown) , result: 1.56

---

System: CANDIDA ALBICANS CCH 442
assay-summary: In vitro antibacterial activity, MIC, BHI agar dilution
Format: cell-based
study-conditions: C. albicans CCH 442, unit assumed
I'd appreciate it if you could supply MIC values for the items below.

Observe how each entry below is paired with its result.
INSERT INTO measurements (compound, tested_system, property, test_result) VALUES
  ('CC[C@H]1OC(=O)[C@H](C)C(=O)[C@H](C)[C@@H](O[C@@H]2O[C@H](C)C[C@H](N(C)C)[C@H]2O)[C@](C)(OC)C[C@@H](C)C2=NC[C@H](Cc3cscn3)N3C(=O)O[C@@]1(C)[C@H]3[C@H]2C', 'CANDIDA ALBICANS CCH 442', 'MIC', '> 100 µg/mL'),
  ('CC[C@H]1OC(=O)[C@H](C)C(=O)[C@H](C)[C@@H](O[C@@H]2O[C@H](C)C[C@H](N(C)C)[C@H]2O)[C@](C)(OC)C[C@@H](C)C2=NC[C@H](Cc3ccc(I)cc3)N3C(=O)O[C@@]1(C)[C@H]3[C@H]2C', 'CANDIDA ALBICANS CCH 442', 'MIC', '100 µg/mL'),
  ('CC[C@H]1OC(=O)[C@H](C)C(=O)[C@H](C)[C@@H](O[C@@H]2O[C@H](C)C[C@H](N(C)C)[C@H]2O)[C@](C)(OC)C[C@@H](C)C2=N[C@@H](COCc3ccccc3)CN3C(=O)O[C@@]1(C)[C@H]3[C@H]2C', 'CANDIDA ALBICANS CCH 442', 'MIC', '> 100 µg/mL'),
  ('CCC1OC(=O)C(C)C(=O)C(C)C(OC2OC(C)CC(N(C)C)C2O)C(C)(OC)CC(C)C2=NCC(C)(CN(C)C)N3C(=O)OC1(C)C3C2C (centres unmarked)', 'CANDIDA ALBICANS CCH 442', 'MIC', '> 100 µg/mL'),
  ('CC[C@H]1OC(=O)[C@H](C)C(=O)[C@H](C)[C@@H](O[C@@H]2O[C@H](C)C[C@H](N(C)C)[C@H]2O)[C@](C)(OC)C[C@@H](C)C2=N[C@H](COCc3ccc(C(=O)OC)cc3)CN3C(=O)O[C@@]1(C)[C@H]3[C@H]2C', 'CANDIDA ALBICANS CCH 442', 'MIC', '> 100 µg/mL');

I have 4 compounds here; please give me MIC for each one.
1. CCC1OC(=O)C(C)C(=O)C(C)C(OC2OC(C)CC(N(C)C)C2O)C(C)(OC)CC(C)C2=NCC(C)(CN(C)Cc3ccccc3)N3C(=O)OC1(C)C3C2C (centres unmarked)
2. CC[C@H]1OC(=O)[C@H](C)C(=O)[C@H](C)[C@@H](O[C@@H]2O[C@H](C)C[C@H](N(C)C)[C@H]2O)[C@](C)(OC)C[C@@H](C)C2=N[C@H](COCc3ccccc3Br)CN3C(=O)O[C@@]1(C)[C@H]3[C@H]2C
3. CC[C@H]1OC(=O)[C@H](C)C(=O)[C@H](C)[C@@H](O[C@@H]2O[C@H](C)C[C@H](N(C)C)[C@H]2O)[C@](C)(OC)C[C@@H](C)C2=NC3CCCCC3N3C(=O)O[C@@]1(C)[C@H]3[C@H]2C (some centres unmarked)
4. CC[C@H]1OC(=O)[C@H](C)C(=O)[C@H](C)[C@@H](O[C@@H]2O[C@H](C)C[C@H](N(C)C)[C@H]2O)[C@](C)(OC)C[C@@H](C)C2=N[C@H](COCc3ccccc3F)CN3C(=O)O[C@@]1(C)[C@H]3[C@H]2C

**A:**
1: > 100 µg/mL; 2: 100 µg/mL; 3: > 100 µg/mL; 4: > 100 µg/mL

I have 8 compounds here; please give me MIC for each one.
1. CC[C@H]1OC(=O)[C@H](C)C(=O)[C@H](C)[C@@H](O[C@@H]2O[C@H](C)C[C@H](N(C)C)[C@H]2O)[C@](C)(OC)C[C@@H](C)C2=N[C@H](CN3CCOCC3)CN3C(=O)O[C@@]1(C)[C@H]3[C@H]2C
2. CC[C@H]1OC(=O)[C@H](C)C(=O)[C@H](C)[C@@H](O[C@@H]2O[C@H](C)C[C@H](N(C)C)[C@H]2O)[C@](C)(OC)C[C@@H](C)C2=NCC(CNCc3ccccc3)N3C(=O)O[C@@]1(C)[C@H]3[C@H]2C (some centres unmarked)
3. CC[C@H]1OC(=O)[C@H](C)C(=O)[C@H](C)[C@@H](O[C@@H]2O[C@H](C)C[C@H](N(C)C)[C@H]2O)[C@](C)(OC)C[C@@H](C)C2=N[C@H](COCc3cc(C)c4ccccc4n3)CN3C(=O)O[C@@]1(C)[C@H]3[C@H]2C
4. CCC1OC(=O)C(C)C(=O)C(C)C(OC2OC(C)CC(N(C)C)C2O)C(C)(OC)CC(C)C2=NCC(CSc3ccccc3)(CN(C)Cc3ccccc3)N3C(=O)OC1(C)C3C2C (centres unmarked)
5. CC[C@H]1OC(=O)[C@H](C)C(=O)[C@H](C)[C@@H](O[C@@H]2O[C@H](C)C[C@H](N(C)C)[C@H]2O)[C@](C)(OC)C[C@@H](C)C2=NC[C@H](COCc3ccccc3)N3C(=O)O[C@@]1(C)[C@H]3[C@H]2C
6. CC[C@H]1OC(=O)[C@H](C)C(=O)[C@H](C)[C@@H](O[C@@H]2O[C@H](C)C[C@H](N(C)C)[C@H]2O)[C@](C)(OC)C[C@@H](C)C2=N[C@H](COCc3ccccc3Cl)CN3C(=O)O[C@@]1(C)[C@H]3[C@H]2C
7. CCC1OC(=O)C(C)C(=O)C(C)C(OC2OC(C)CC(N(C)C)C2O)C(C)(OC)CC(C)C2=NCC(CCc3ccccc3)N3C(=O)OC1(C)C3C2C (centres unmarked)
8. CC[C@H]1OC(=O)[C@H](C)C(=O)[C@H](C)[C@@H](O[C@@H]2O[C@H](C)C[C@H](N(C)C)[C@H]2O)[C@](C)(OC)C[C@@H](C)C2=NCC(COC(=O)c3ccnc4ccccc34)N3C(=O)O[C@@]1(C)[C@H]3[C@H]2C (some centres unmarked)

**A:**
["> 100 µg/mL", "> 100 µg/mL", "> 100 µg/mL", "50 µg/mL", "> 100 µg/mL", "100 µg/mL", "> 100 µg/mL", "> 100 µg/mL"]
